molecules and their reported TGI
- Test system: EKVX NSCLC
- assay method text: NCI tumour cell line growth inhibition, 48 h
Where a SMILES comes first, the peptide text is derived from it. [ ]: non-standard residue; d: D form. The star is where a group is joined. NMeF = CN[C@@H](Cc1ccccc1)C(=O)O; NMeV = CN[C@H](C(=O)O)C(C)C; Boc = CC(C)(C)OC(=O)*; OBn = c1ccc(CO*)cc1

| molecule | TGI |
| --- | --- |
| C=C(C)[C@@H]1CCC2=C[C@H](OC2=O)[C@@]2(C)C[C@@H]2C(=O)/C=C(/C)C(=O)[C@H]1OC(C)=O | > 49.8 µM |
| CC1OC(OC2C(CO)OC(O[C@H]3CC[C@@]4(C)C(=CC[C@H]5[C@@H]6C[C@@H]7O[C@](O)(CC[C@H](C)COC8OC(CO)C(O)C(O)C8O)[C@@H](C)[C@@H]7[C@@]6(C)CC[C@@H]54)C3)C(OC3OC(C)C(O)C(O)C3O)C2O)C(O)C(O)C1O (some centres not stated) | > 100 µM |
| CN(C)CCNC1=CC(=O)c2nc3ccccc3c3ccnc1c23 | 14.3 µM |
| O=[N+]([O-])c1cc(-c2nnc(C34CC5CC(CC(C5)C3)C4)o2)cc([N+](=O)[O-])c1 | > 100 µM |
| O=C1OC(c2ccccc2)=N/C1=C\c1cc(Cl)ccc1Cl | > 100 µM |
| Cc1ccc(NC2=C(Cl)C(=O)N(Cc3ccccc3)C2=O)cc1Cl | 28.9 µM |
| CCCC1=C(C(=O)OCC)C(c2ccccc2OC)C(C#N)=C(N)O1 (configuration not stated) | > 100 µM |
| NC(=O)Nc1ccc(C(=O)NCCCNC(=O)c2ccc(NC(N)=O)cc2)cc1 | > 100 µM |
| CC(C)[Si](OC1=C(c2ccccc2)C(NC(=O)/C=C/c2ccc([N+](=O)[O-])cc2)CCC1)(C(C)C)C(C)C (configuration not stated) | > 100 µM |
| COc1ccc2c(c1)/C(=C\c1c(Cl)n(C)c3ccccc13)C(=O)N2 | 24.4 µM |
| COC(=O)c1cnn2c1ccc1ccccc12 | > 100 µM |
| COC1OC(COS(=O)(=O)c2ccc(C)cc2)C(O)C(OS(=O)(=O)c2ccc(C)cc2)C1OS(=O)(=O)c1ccc(C)cc1 (configuration not stated) | > 100 µM |
| CC(C)[C@@H](C(=O)N1CCC[C@H]1C(=O)OCc1ccccc1)N(C)C(=O)[C@H](C(C)C)N(C)C(=O)[C@H](Cc1ccccc1)N(C)C(=O)[C@H](NC(=O)OC(C)(C)C)C(C)C (Boc-[dV][NMeF][NMeV][NMeV]P-OBn) | > 100 µM |
| Cc1cc(C)c2nc3nc(C)cc(C)c3c(N)c2c1 | 43 µM |
| COc1ccc2c(c1)CCN1CCCc3ccc(OC)cc3C21 (configuration not stated) | > 100 µM |
| O=C1/C(=C/c2ccc(Cl)cc2)N=C(c2ccccc2)N1c1nc2c(Cl)cc(Cl)cc2s1 | 68.9 µM |
| Cc1cc(=O)oc2c(OS(C)(=O)=O)c(OS(C)(=O)=O)ccc12 | > 100 µM |

---

molecules and their reported TGI
- Test system: LOX IMVI melanoma
- assay method text: NCI tumour cell line growth inhibition, 48 h
result type: TGI

| molecule | experimental value |
| --- | --- |
| Cc1ccc2ccc3ccc(C)nc3c2n1 | > 100 µM |
| CCOC(=O)c1c(-c2ccccc2)nc2c(OC)nccn12 | > 100 µM |
| O=C1N=NC(=O)N1c1cc(C(F)(F)F)cc(C(F)(F)F)c1 | 11.7 µM |
| Cc1ccc2c(c1)C(C1Cc3cccc(C)c3C1=O)OC2=O (stereo unspecified) | > 100 µM |
| Brc1ccccc1C=NC12CC3CC(CC(C3)C1)C2 | > 100 µM |
| CC1C2(C)OC(=N)C(C#N)(C(C)O2)C1(C#N)C#N (stereo unspecified) | 41.4 µM |

---

- System: DMS 273 small cell lung
- assay method text: NCI tumour cell line growth inhibition, 48 h
molecules and their reported log10 TGI
result type: log10 TGI (log10 of the value in µM)

| molecule | log10 TGI |
| --- | --- |
| CN(C)[C@H]1CC[C@H]2[C@@H]3CCC4C[C@@H](NC(=O)NC(Cc5ccccc5)c5nccs5)CC[C@]4(C)[C@H]3CC[C@]12C (some centres undefined) | 0.59 |
| COC1=C2C[C@@H](C)C[C@@H](OC)[C@@H](O)[C@H](C)/C=C(\C)[C@@H](OC(N)=O)[C@H](OC)/C=C\C=C(/C)C(=O)NC(=CC1=O)C2=O | 0.31 |
| COC(=O)CS(=O)c1ccccc1 (centres undefined) | 1.93 |
| Cc1ccc(C(=O)C#Cc2c[nH]c(=O)[nH]c2=O)cc1 | 1.59 |
| O=C(O)c1cccc2cccc(C(=O)O)c12.[Hg] | 1.50 |

---

- Tested on: RPMI-8226 leukemia
- assay method text: NCI tumour cell line growth inhibition, 48 h
result type: TGI (µM)

| molecule | measured on | result type | unit descriptor | limit sign | experimental value |
| --- | --- | --- | --- | --- | --- |
| O=C1OC(c2ccccc2)=N/C1=C\c1cc(Cl)ccc1Cl | RPMI-8226 leukemia | TGI | µM | > | 100 |
| Nc1ncnc2c1ncn2C1C=CC(COS(N)(=O)=O)C1 (configuration not stated) | RPMI-8226 leukemia | TGI | µM | > | 100 |
| O=[N+]([O-])C(=C(N1CCCCC1)N1CCCCC1)/C(Cl)=C(\Cl)[N+](=O)[O-] | RPMI-8226 leukemia | TGI | µM | = | 13.7 |
| COc1ccc(-c2nn(-c3cccc(NC(=O)c4cccc(C(F)(F)F)c4)c3)cc2-c2ccncc2)cc1Cl | RPMI-8226 leukemia | TGI | µM | = | 49 |
| O=C1C(c2c(O)[nH]c3ccccc23)=Nc2ccc(Br)cc21 | RPMI-8226 leukemia | TGI | µM | > | 100 |
| O=C(NCCNc1nccc(-c2c(-c3ccc(F)cc3)nc3sccn23)n1)c1ccccc1 | RPMI-8226 leukemia | TGI | µM | = | 27 |
| CC(C)n1c(=O)[nH]n(-c2ccccc2)c1=O | RPMI-8226 leukemia | TGI | µM | > | 100 |
| O=C(Cc1ccccc1)NC(c1ccc(Cl)cc1)c1c(O)ccc2ccccc12 (configuration not stated) | RPMI-8226 leukemia | TGI | µM | = | 8.36 |
| O=C1NC(c2c(Cl)cccc2Cl)Nc2ccccc21 (configuration not stated) | RPMI-8226 leukemia | TGI | µM | > | 100 |
| Cc1cc(C)c2nc3nc(C)cc(C)c3c(N)c2c1 | RPMI-8226 leukemia | TGI | µM | = | 24.8 |
| COc1cc(/C=C2\C(=O)N(c3ccccc3)c3ccccc32)cc(OC)c1OC | RPMI-8226 leukemia | TGI | µM | = | 5.78 |
| CCOC(=O)NC(=O)c1cn(CCCOC(=O)NCCCCCCNC(=O)OCCCn2cc(C(=O)NC(=O)OCC)c(=O)[nH]c2=O)c(=O)[nH]c1=O | RPMI-8226 leukemia | TGI | µM | = | 39.2 |
| O=C(NC1CCCCC1)NS(=O)(=O)c1ccc(-n2nc3c(c2-c2ccc(Cl)cc2)Cc2ccccc2-3)cc1 | RPMI-8226 leukemia | TGI | µM | = | 5.43 |
| CO/N=C(\C(=O)Nc1cncs1)c1csc(N)n1 | RPMI-8226 leukemia | TGI | µM | > | 10 |
| CNC(=O)NC(CCCCNC(=O)OCc1ccccc1)C(=O)OCc1ccccc1 (configuration not stated) | RPMI-8226 leukemia | TGI | µM | = | 67.4 |
| N=c1n(Cc2ccccc2)c(N)cc(=O)n1Cc1ccccc1 | RPMI-8226 leukemia | TGI | µM | = | 18.1 |
| O=C1C(=c2cc3c(c4ccccc24)=NC24CCCCC2C(c2ccccc2)C=C(c2ccccc2)N34)C(=O)c2ccccc21 (configuration not stated) | RPMI-8226 leukemia | TGI | µM | = | 53.8 |
| COc1ccc(CCN2CCC(Nc3nc4ccccc4n3Cc3ccc(F)cc3)CC2)cc1 | RPMI-8226 leukemia | TGI | µM | = | 4.73 |
| CN(C)CCNC1=CC(=O)c2nc3ccccc3c3ccnc1c23 | RPMI-8226 leukemia | TGI | µM | = | 55.5 |
| O=c1c2cc(-c3ccccc3)cnc2sn1-c1ccc(Oc2ccccc2)cc1 | RPMI-8226 leukemia | TGI | µM | > | 100 |
| COc1cc([C@H]2CC(=O)C[C@@H](c3cc(OC)c(OC)c(OC)c3)C23C(=O)c2ccccc2C3=O)cc(OC)c1OC | RPMI-8226 leukemia | TGI | µM | > | 100 |
| COC(=O)CS(=O)c1ccccc1 (configuration not stated) | RPMI-8226 leukemia | TGI | µM | = | 52.2 |
| O=C(O)c1c[nH]c2c(OCc3ccccc3)c3ccccc3c(O)c2c1=O | RPMI-8226 leukemia | TGI | µM | = | 35.8 |
| COc1ccc2nc3cc([N+](=O)[O-])ccc3c(Nc3ccc(S(=O)(=O)N=C(N)N)cc3)c2c1 | RPMI-8226 leukemia | TGI | µM | = | 42.6 |
| COc1ccc2oc(=O)c(-c3nc4ccccc4o3)cc2c1 | RPMI-8226 leukemia | TGI | µM | > | 100 |
| CCOC(=O)N/N=C(\Cc1ccc([N+](=O)[O-])cc1)OCC | RPMI-8226 leukemia | TGI | µM | > | 100 |
| CSc1nc2c(c(=O)[nH]1)N=C(c1ccc(Cl)cc1)CC(c1ccccc1)N2 (configuration not stated) | RPMI-8226 leukemia | TGI | µM | = | 40.1 |
